B1: TRIM9 (parent)
chain: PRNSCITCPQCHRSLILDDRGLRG

# Variants of: B1
# EXPERIMENTAL DETAILS: protein stability index of a GFP-peptide fusion (GPS, HEK-293T) (PSI 1-6); higher = more stable;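 also: lentivirally expressed fusions sorted by FACS into six bins by GFP to DsRed ratio, PSI derived from sequencing read proportions per bin multiplied by bin number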
# ASSAY SETUP: c terminus: a fixed tail appended
Some variants, each annotated with its measured protein stability index.
The answer should be a number; do not append a unit.

// below: answered variants
PRNSCITCPQCHRSLILDDRGLRP [G24P]    2.03
PRNSCINCPQCHRSLILDDRGLRG [T7N]    2.04
PRNSCITCPQCHRSLILHDRGLRG [D18H]    2.03

Quick one: protein stability index for PRNSCITCPMCHRSLILDDRGLRG [Q10M] ?
2.04
